- System: MDR1 (P-gp)
- protocol text: Blood-brain-barrier (BBB) penetration potential via MDCK-MDR1 permeability assay
- measurement conditions: dog, MDCK-MDR1, pH 7.4, MDCK-MDR1: Papp A-B, A-B direction
Papp A→B at 120 min, 5 μM less than 3 ×10⁻⁶ cm/s is Fulfilled; Papp A→B at 120 min, 5 μM greater than or equal to 3 ×10⁻⁶ cm/s is Not fulfilled.

>  <molecule>
CN(c1ccc(-c2cc3cccnc3cc2O)nn1)[C@H]1C[C@@H]2CCC[C@@H](N2)[C@H]1F [Compound 41B]

>  <discrete label>
Fulfilled

$$$$
>  <molecule>
CN(c1ccc(-c2cc3nnccc3cc2O)nn1)[C@@H]1C[C@H]2CC[C@H](N2)[C@@H]1F [Compound 89A]

>  <discrete label>
Fulfilled

$$$$
>  <molecule>
CN(c1ccc(-c2cc3ccncc3cc2O)nn1)[C@@H]1C[C@H]2CC[C@H](N2)[C@@H]1F (single isomer, unassigned) [Compound 87A]

>  <discrete label>
Not fulfilled

$$$$

stdin: Quick check: Papp A→B at 120 min, 5 μM of CN(c1ccc(-c2ccc(-n3nccn3)cc2O)nn1)[C@H]1C[C@@H]2CCC[C@@H](N2)[C@H]1F under 3 ×10⁻⁶ cm/s?
stdout: Not fulfilled

stdin: Same again, this time with CN(c1ccc(-c2ccc(-c3ccccn3)cc2O)nn1)[C@@H]1C[C@H]2CCC[C@H](N2)[C@@H]1F [Compound 23A]
stdout: Not fulfilled

stdin: Same again, this time with CN(c1ccc(-c2ccc(-n3ccnn3)cc2O)nn1)[C@H]1C[C@@H]2CCC[C@@H](N2)[C@H]1F [Compound 62B]
stdout: Not fulfilled

stdin: Same again, this time with CN(c1ccc(-c2cc3cnccc3cc2O)nn1)[C@H]1C[C@@H]2CC[C@H]([C@H]1F)N2C [Compound 93B]
stdout: Not fulfilled

---

- Test system: MDR1 (P-gp)
- protocol text: Blood-brain-barrier (BBB) penetration potential via MDCK-MDR1 permeability assay
- measurement conditions: dog, MDCK-MDR1, pH 7.4, MDCK-MDR1: Papp B-A, B-A direction
measurement label: Papp B→A at 120 min, 5 μM

For orientation, consider the following solved cases.
>  <compound>
CN(c1ccc(-c2cc3c(=O)n(C)ccc3cc2O)nn1)[C@@H]1C[C@H]2CC[C@H](N2)[C@@H]1F [Compound 83A]

>  <measurement label>
Papp B→A at 120 min, 5 μM

>  <result value>
435 nm/s

$$$$
>  <compound>
CN(c1ccc(-c2cc3c(F)cn(C)c(=O)c3cc2O)nn1)[C@H]1C[C@@H]2CC[C@@H](N2)[C@H]1F [Compound 54B]

>  <measurement label>
Papp B→A at 120 min, 5 μM

>  <result value>
615 nm/s

$$$$

API: the following record is the query input.
stdin: Suppose we examine the compound CN(c1ccc(-c2cc(F)c(-n3ccnn3)cc2O)nn1)[C@@H]1C[C@H]2CC[C@H](N2)[C@@H]1F [Compound 52A] ; what Papp B→A at 120 min, 5 μM value has been reported?
stdout: 497 nm/s

---

- System: MDR1-MDCK cell monolayers
- protocol text: Blood-brain-barrier (BBB) penetration potential via MDCK-MDR1 permeability assay
- measurement conditions: B-A direction
measurement label: MDCK-MDR1: % Recov B-A (%)
One number for each entry, in %.

For orientation, consider the following solved cases.
>  <molecule>
CN(c1ccc(-c2cc3cnn(C)c3cc2O)nn1)[C@H]1C[C@@H]2CC[C@@H](N2)[C@H]1F [Compound 76B]

>  <result value>
93

$$$$
>  <molecule>
CCc1cn(-c2ccc(-c3ccc(N(C)[C@@H]4C[C@H]5CC(F)(F)[C@@H](C4)N5)nn3)c(O)c2)cn1 [Compound 18A]

>  <result value>
71

$$$$
>  <molecule>
CN(c1ccc(-c2cc3oc(=O)n(C)c3cc2O)nn1)[C@H]1C[C@@H]2CC[C@@H](N2)[C@H]1F (single isomer, unassigned) [Compound 79B]

>  <result value>
99

$$$$
>  <molecule>
Cc1cnc(-c2ccc(-c3ccc(N(C)[C@@H]4C[C@H]5CC[C@H](N5)[C@@H]4F)nn3)c(O)c2)o1 [Compound 48A]

>  <result value>
76

$$$$
>  <molecule>
CN(c1ccc(-c2cc3ccncc3s2)nn1)[C@H]1C[C@@H]2CC[C@@H](N2)[C@H]1F [Compound 65B]

>  <result value>
87

$$$$
>  <molecule>
CN(c1ccc(-c2ccc(-n3cnc(C#N)c3)cc2O)nn1)[C@@H]1C[C@H]2CCC[C@H](N2)[C@@H]1F [Compound 63A]

>  <result value>
91

$$$$
>  <molecule>
CC#Cc1ccc(-c2ccc(N(C)[C@@H]3C[C@H]4CC[C@H](N4)[C@@H]3F)nn2)c(O)c1 (single isomer, unassigned) [Compound 30A]

>  <result value>
55

$$$$
>  <molecule>
CN(c1ccc(-c2ccc(-c3cnn(C)c3)cc2O)nn1)[C@@H]1C[C@H]2CCC[C@H](N2)[C@H]1F [Compound 14A]

>  <result value>
83

$$$$

State the recorded MDCK-MDR1: % Recov B-A for every item in the following list.
1. CCN(c1ccc(-c2ccc(-c3cn[nH]c3)cc2O)nn1)[C@@H]1C[C@H]2CC[C@H](N2)[C@@H]1F [Compound 12A]
2. CN(c1ccc(-c2ccc(-n3ccnc3)cc2O)nn1)[C@@H]1C[C@H]2CC(F)(F)[C@@H](C1)N2 [Compound 13A]
3. CN(c1ccc(-c2ccc(-c3cnccn3)cc2O)nn1)[C@H]1C[C@@H]2CCC[C@@H](N2)[C@H]1F [Compound 24B]

stdout:
1: 74; 2: 86; 3: 91

State the recorded MDCK-MDR1: % Recov B-A for every item in the following list.
1. CN(c1ccc(-c2ccc(-n3cnc(Cl)c3)cc2O)nn1)[C@H]1C[C@@H]2CC(F)(F)[C@H](C1)N2 [Compound 37B]
2. C#Cc1ccc(-c2ccc(N(C)[C@H]3C[C@@H]4CC[C@@H](N4)[C@H]3F)nn2)c(O)c1 [Compound 10B]
3. CN(c1ccc(-c2cc3ncccc3cc2O)nn1)[C@H]1C[C@@H]2CCC[C@@H](N2)[C@H]1F [Compound 78B]

stdout:
[70, 82, 79]
